meta.source: patent US20190308987A1

Biological target: delta opioid receptor (DOR) (Homo sapiens)
Construct: expressed in transfected cells; host or cells: CHO cells (membranes)
Sequence (P41143 whole entry): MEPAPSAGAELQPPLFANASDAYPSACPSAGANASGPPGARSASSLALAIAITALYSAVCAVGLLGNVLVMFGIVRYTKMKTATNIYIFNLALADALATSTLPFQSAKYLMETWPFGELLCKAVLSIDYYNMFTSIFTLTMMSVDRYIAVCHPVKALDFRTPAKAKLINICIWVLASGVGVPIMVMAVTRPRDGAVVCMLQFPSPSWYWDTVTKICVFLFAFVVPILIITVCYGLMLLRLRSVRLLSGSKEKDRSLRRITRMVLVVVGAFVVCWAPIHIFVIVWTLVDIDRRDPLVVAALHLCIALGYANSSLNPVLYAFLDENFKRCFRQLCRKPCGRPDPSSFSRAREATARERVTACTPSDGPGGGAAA
Assay: Competitive radioligand binding, DOR ([3H]NTI)
Settings: read-out: Ki (nM) ± SEM
reported_endpoint: Ki (nM)
Give the number; nM is assumed, so skip it.

Asked: Recall the recorded Ki for O=C(N[C@@H]1CC[C@@]2(O)[C@H]3Cc4ccc(O)c5c4[C@@]2(CCN3CC2CC2)C1O5)c1cc[n+](Cc2ccccc2)cc1 (stereo partly shown) with delta opioid receptor (DOR) (Homo sapiens) and state it.
Given back: 722
